protocol_summary: inhibitors of HIV fusion peptide binding, primary screen, biochemical, uHTS, fluorescence dequenching (AID 1986)
test_parameters: cell-free peptide binding, 30 min, at 20 µM, active compounds read high
The campaign covered roughly 290,000 compounds. About 890 (0.31%) were called active. The sample holds actives, similar compounds and a random draw of the others, so the mix is not that of the screen.
quantity: inhibition (%)
All answers are understood in %, so give the number only.

Query :: Consider the molecule shown here: Cc1c(N=C2N=C(NC(=O)c3ccc(F)cc3)c3ccccc32)c(=O)n(-c2ccccc2)n1C What is its recorded inhibition?
Result :: 74.4

Query :: Consider the molecule shown here: CC(C)(C)c1cc(C(=O)C[n+]2ccc(C(=O)NCCCO)cc2)cc(C(C)(C)C)c1O What is its recorded inhibition?
Result :: -4

Query :: Consider the molecule shown here: O=C(CS(=O)(=O)Cc1ccccc1)N1CCN(c2cccc(C(F)(F)F)c2)CC1 What is its recorded inhibition?
Result :: 4.6

Query :: Consider the molecule shown here: Cc1c(N=C2N=C(NC(=O)c3cccs3)c3ccccc32)c(=O)n(-c2ccccc2)n1C What is its recorded inhibition?
Result :: 75.3

Query :: Consider the molecule shown here: Cc1c(N=C2N=C(NC(=O)NC(C)(C)C)c3ccccc32)c(=O)n(-c2ccccc2)n1C What is its recorded inhibition?
Result :: -0.2
